less activity compared to wt-aeq (thermostability) overview
Assay: Thermostability: relative bioluminescence activity after 30 min incubation
Type: physicochemical
Settings: after incubation at 30 and 40° C.
Output spec: scalar in %, unitless text.

# molecule, number
measured = [
    ("N121D: apoaequorin mutant, asparagine 121 replaced by aspartic acid (SEQ ID NO:9) (protein, mutant aequorin) SKLTSDFDNPRWIGRHKHMFNFLDVNHNGKISLDEMVYKASDIVINNLGATPEQAKRHKDAVEAFFGGAGMKYGVETDWPAYIEGWKKLATDELEKYAKNEPTLIRIWGDALFDIVDKDQDGAITLDEWKAYTKAAGIIQSSEDCEETFRVCDIDESGQLDVDEMTRQHLGFWYTMDPACEKLYGGAVP", 19),
    ("QD + ND: apoaequorin double mutant Q159D + N121D (SEQ ID NO:13) (protein, mutant aequorin) SKLTSDFDNPRWIGRHKHMFNFLDVNHNGKISLDEMVYKASDIVINNLGATPEQAKRHKDAVEAFFGGAGMKYGVETDWPAYIEGWKKLATDELEKYAKNEPTLIRIWGDALFDIVDKDQDGAITLDEWKAYTKAAGIIQSSEDCEETFRVCDIDESGDLDVDEMTRQHLGFWYTMDPACEKLYGGAVP", 20),
]

Next:
So, A123D: apoaequorin mutant, alanine 123 replaced by aspartic acid (SEQ ID NO:10) (protein, mutant aequorin) SKLTSDFDNPRWIGRHKHMFNFLDVNHNGKISLDEMVYKASDIVINNLGATPEQAKRHKDAVEAFFGGAGMKYGVETDWPAYIEGWKKLATDELEKYAKNEPTLIRIWGDALFDIVDKDQNGDITLDEWKAYTKAAGIIQSSEDCEETFRVCDIDESGQLDVDEMTRQHLGFWYTMDPACEKLYGGAVP ? Its less activity compared to wt-aeq (thermostability) was 19
